biological target: Aβ1-42 (Homo sapiens); test: Amyloid Beta (1-42) Thioflavin T fibrillation (aggregation) assay; type: biochemical; parameters: used to monitor the formation of Aβ1-42 peptide fibrils; purchased Anaspec; details: increasing concentrations of peptide; Rfu
measurement.name: inhibition of Aβ1-42 fibrillation (in words)

substance: GTLCTVAGWGRVSMRRGTDTLREVQL (Completely synthesized in the lab. Amino acids 119-144 of Cathepsin G protein.) [CG119-144]
data.value: no inhibitory effect
//
substance: CG119-144 ΔR129V130: mutant CG-derived peptide, CG119-144 with positively charged R129 (and V130) deleted (GTLCTVAGWGSMRRGTDTLREVQL)
data.value: no inhibitory effect

###

molecular target: Aβ1-42 (Homo sapiens); assay: ELISA binding of Aβ1-42 to plate-coated neutrophil proteins and derived peptides; settings: 150 nM Aβ1-42; plate coated with protein/peptide at 5 μg/ml; no protease inhibitor

biosequence: NQGRHFSGGALIHARFVMTAASCFQ (Completely synthesized in the lab. Peptide CAP3720-44C26S.) [20-44 SC, mutant CAP37-derived peptide 20-44]
binding of Aβ1-42: binds

###

target: Aβ1-42 (Homo sapiens, UniProt P05067); assay: ELISA binding of Aβ1-42 to plate-coated neutrophil proteins and derived peptides; details: 150 nM Aβ1-42; plate coated with protein/peptide at 5 μg/ml; no protease inhibitor
Sequence (P05067 672-713 limits assumed): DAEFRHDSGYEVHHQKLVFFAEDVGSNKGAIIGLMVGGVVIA

substance: NQGRHFCGGALIHARFVMTAASCFQ (Completely synthesized in the lab. Amino acids 20-44 of CAP37 protein.) [20-44 CC, wild-type CAP37-derived peptide, amino acids 20-44 of CAP37 protein]
binding of Aβ1-42: binds
--
substance: GTRCQVAGWGSQRSGGRLSRFPRFVNV (Completely synthesized in the lab. Amino acids 120-146 of CAP37 protein.) [120-146 QR, wild-type CAP37-derived peptide, amino acids 120-146 of CAP37 protein]
binding of Aβ1-42: binds

Reference source: patent US12241099B2
